target: Cannabinoid receptor 1 (Rattus norvegicus, UniProt P20272); test: Agonist activity at rat CB1 receptor expressed in CHOK1 cells assessed as inhibition of forskolin-induced cAMP production treated 15 mins before forskolin challenge measured after 1 hr by HTRF assay
Sequence (P20272 whole entry): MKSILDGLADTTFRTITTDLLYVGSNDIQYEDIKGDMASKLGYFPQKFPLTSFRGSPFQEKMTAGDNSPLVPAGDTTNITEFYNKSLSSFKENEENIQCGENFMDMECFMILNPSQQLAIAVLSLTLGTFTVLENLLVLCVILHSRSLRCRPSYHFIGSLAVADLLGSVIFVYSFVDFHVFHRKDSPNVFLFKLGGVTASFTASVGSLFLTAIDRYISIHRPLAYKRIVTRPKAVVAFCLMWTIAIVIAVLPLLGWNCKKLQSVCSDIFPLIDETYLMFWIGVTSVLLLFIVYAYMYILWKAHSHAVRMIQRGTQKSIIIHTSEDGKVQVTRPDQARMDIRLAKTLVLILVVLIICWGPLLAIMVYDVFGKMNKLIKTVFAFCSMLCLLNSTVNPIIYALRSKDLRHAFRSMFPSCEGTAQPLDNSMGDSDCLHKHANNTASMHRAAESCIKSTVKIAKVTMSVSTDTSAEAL
property: pIC50
In simple prose, pIC50 is minus the logarithm base ten of a concentration in moles per litre.

*Q* Field: pIC50 (Cannabinoid receptor 1 (Rattus norvegicus, UniProt P20272)). Entry: Cc1ccc(C(=O)N2CC[C@@](O)(c3ccccc3)[C@@H]3CCCC[C@@H]32)cn1
*A* 5.72

---

target: Cannabinoid receptor 2 (Homo sapiens, UniProt P34972); assay: Agonist activity at human CB2 receptor expressed in CHOK1 cells assessed as inhibition of forskolin-induced cAMP production treated 15 mins before forskolin challenge measured after 1 hr by HTRF assay
Sequence (P34972 whole entry): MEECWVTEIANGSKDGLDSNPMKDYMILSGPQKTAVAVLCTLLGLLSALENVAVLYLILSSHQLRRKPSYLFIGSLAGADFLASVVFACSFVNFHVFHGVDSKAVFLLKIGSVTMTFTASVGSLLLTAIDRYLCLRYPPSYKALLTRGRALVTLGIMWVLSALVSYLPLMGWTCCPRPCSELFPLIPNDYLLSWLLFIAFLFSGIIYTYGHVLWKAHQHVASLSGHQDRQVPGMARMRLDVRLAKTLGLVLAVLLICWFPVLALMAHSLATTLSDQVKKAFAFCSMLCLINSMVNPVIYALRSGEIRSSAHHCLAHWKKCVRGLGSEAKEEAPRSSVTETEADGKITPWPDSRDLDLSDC
Quick reference for pIC50 among some compounds
In simple prose, pIC50 is minus the logarithm base ten of a concentration in moles per litre.

CS(=O)(=O)c1ccc([C@@]2(O)CCN(C(=O)c3ccccc3)[C@H]3CCCC[C@@H]32)cc1 = 6.97

*Q* # input compound: CN1CCOC[C@H]1C(=O)N1CC[C@@](O)(c2ccccc2)[C@@H]2CCCC[C@@H]21 ; wanted: its pIC50
*A* 7.80

*Q* # input compound: O=C(c1ccccc1)N1CC[C@](O)(c2cccc(C(F)(F)F)c2)[C@H]2CCCC[C@@H]21 ; wanted: its pIC50
*A* 6.09

*Q* # input compound: O=C(c1cccc2[nH]ncc12)N1CCC(O)(c2ccccc2)[C@@H]2CCCC[C@@H]21 (some centres undefined) ; wanted: its pIC50
*A* 8.31
